Molecular target: D10A/N11A/R12A/E13A (AAAA) Bcl2 mutant (Homo sapiens, UniProt P10415, D10A/E13A/N11A/R12A)
Sequence (P10415 whole entry D10A/N11A/R12A/E13A): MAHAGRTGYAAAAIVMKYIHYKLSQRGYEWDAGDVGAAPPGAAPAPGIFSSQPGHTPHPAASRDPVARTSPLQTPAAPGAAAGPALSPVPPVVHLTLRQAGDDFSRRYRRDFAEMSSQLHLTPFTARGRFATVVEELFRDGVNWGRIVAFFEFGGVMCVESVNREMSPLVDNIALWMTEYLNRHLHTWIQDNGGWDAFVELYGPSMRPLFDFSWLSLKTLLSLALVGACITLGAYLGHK
Experiment: Competitive fluorescence polarization assay
value kind: Ki (nM)
Numbers only, in nM.

Given the entry "CCN(CC)C[C@@H](O)CNc1ccc(NC[C@H]2CO2)c2c1C(=O)c1ccccc1C2=O" , what Ki was observed with D10A/N11A/R12A/E13A (AAAA) Bcl2 mutant (Homo sapiens, UniProt P10415, D10A/E13A/N11A/R12A)? 599
